B1: Mineralocorticoid receptor, residues 600 to 675; numbered along this chain, P08235 (parent)
chain: SKICLVCGDEASGCHYGVVTCGSCKVFFKRAVEGQHNYLCAGRNDCIIDKIRRKNCPACRLQKCLQAGMNLGARKS

variants of: B1; test: abundance fitness (aPCA) (normalised: wild type 0, dead -1); higher = more abundant; growth selection in yeast, the domain comes from the species named; details: Homo sapiens
Entry flag: Satisfied if abundance fitness reaches -0.06; Not satisfied if it does not.

Task: Reported abundance fitness at or above -0.06? K25E
Output: Satisfied

New cases:
Task: Record P57H ; criterion: abundance fitness no lower than -0.06. Met?
Output: Satisfied

Task: Is abundance fitness at least -0.06? Consider G34N
Output: Satisfied

Ref: the Human Domainome abundance scans (Beltran et al. 2025)
